The values you see were collected from ChEMBL document CHEMBL1125487.

Collected IOP values appear next to each entry.
Species on record: Oryctolagus cuniculus
experimental protocol: Effect on intraocular pressure in right eye was tested by using transition ocular hypertension model at 40 min. Note: test concentration or dose not given here.
Format: functional
readout: IOP (mmHg)

>>> endpoint_result("NCCCCC(=O)Nc1nnc(S(N)(=O)=O)s1")
16.83
>>> endpoint_result("COC(=O)CC(=O)Nc1nnc(S(N)(=O)=O)s1")
17
>>> endpoint_result("CCCCCOC(=O)CCC(=O)Nc1nnc(S(N)(=O)=O)s1")
17.83
>>> endpoint_result("NS(=O)(=O)c1nnc(NC(=O)CCCCC(=O)O)s1")
17.17
>>> endpoint_result("COC(=O)CCC(=O)/N=c1/sc(S(N)(=O)=O)nn1C")
17.33
>>> endpoint_result("NS(=O)(=O)c1nnc(NC(=O)CCC(=O)O)s1")
15.67
>>> endpoint_result("COC(=O)CCC(=O)Nc1nnc(S(N)(=O)=O)s1")
16.5
>>> endpoint_result("CC(C)(C)NC[C@H](O)COc1nsnc1N1CCOCC1")
18.77
>>> endpoint_result("CCOC(=O)CCC(=O)Nc1nnc(S(N)(=O)=O)s1")
15.67
>>> endpoint_result("NS(=O)(=O)c1nnc(NC(=O)CCCC(=O)O)s1")
16.5
>>> endpoint_result("CCCCCOC(=O)CCC(=O)/N=c1/sc(S(N)(=O)=O)nn1C")
22
>>> endpoint_result("CCC(C)OC(=O)CCC(=O)Nc1nnc(S(N)(=O)=O)s1 (stereo not drawn)")
16.67
>>> endpoint_result("NS(=O)(=O)c1nnc(NC(=O)CCCCCCCC(=O)O)s1")
17
